Quick record of MIC values for Aspergillus niger.

See these solved cases before continuing.
Cc1cc(-c2ccccc2)c(C(=O)C(=O)Nc2ccc3c(c2)N(C)CC2CN(c4ncc(F)cn4)CCN32)n1C (stereo not shown) [Example 12] :: 0.01 to 0.1 µg/mL
Cc1cc(-c2ccccc2)c(C(=O)C(=O)Nc2ccc3c(c2)OCC2CN(CC(C)(C)C)CCN32)n1C (stereo not shown) [Example 8] :: 0.01 to 0.1 µg/mL
Cc1cc(C)nc(N2CCN3c4ccc(NC(=O)C(=O)c5c(-c6ccccc6)cc(C)n5C)cc4N(C)C[C@@H]3C2)c1 [Example 13-A] :: 0.01 to 0.1 µg/mL

## Input Tell me its MIC given COCCn1c(C)cc(-c2ccccc2)c1C(=O)C(=O)Nc1ccc2c(c1)OCC1CN(c3ncc(F)cn3)CCN21 (stereo not shown) [Example 16] as the entry.
## Output < 0.01 µg/mL
